molecular target: human MCH-2R (human, UniProt Q969V1 1-340); assay: cell-based or functional assay
Sequence (Q969V1 whole entry): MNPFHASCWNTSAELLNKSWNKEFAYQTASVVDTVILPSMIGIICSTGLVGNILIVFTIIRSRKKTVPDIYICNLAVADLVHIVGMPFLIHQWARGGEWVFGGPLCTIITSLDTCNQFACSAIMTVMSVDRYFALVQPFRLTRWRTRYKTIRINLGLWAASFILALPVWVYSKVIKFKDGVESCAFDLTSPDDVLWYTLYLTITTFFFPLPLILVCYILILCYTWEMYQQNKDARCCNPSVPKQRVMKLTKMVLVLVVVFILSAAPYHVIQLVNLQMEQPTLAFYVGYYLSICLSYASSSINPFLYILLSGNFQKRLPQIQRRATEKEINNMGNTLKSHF
Positions of bridges follow the written chain, without caps; N, C: chain ends. No end group written: not given here.
property: Activation %, aequorin bioluminescence (%)

Example cases with answers are listed next.
- binder: "XCMLGRVYRPC (not fully specified; N-terminal acetyl; D-Glu at position 6; C-terminal amide; disulfide cycle) [SEQ. ID. NO. 12 (Ac-D-Glu^6 analog of Ac-hMCH(6-16)-NH2)]"
  unitAbbrev: "%"
  Activation %, aequorin bioluminescence: 20
- binder: "XMLGRVYRPC (Ac-Arg^6 segment eliminated; Mpr, des-amino-cysteine (3-mercaptopropionic acid) at position 7 instead of Cys; C-terminal amide; disulfide ring) [SEQ. ID. NO. 15 (Δ(X^6-Cys^7), Mpr^7 analog of Ac-hMCH(6-16)-NH2)]"
  unitAbbrev: "%"
  Activation %, aequorin bioluminescence: 47
- binder: "XCMLGRVYRPC (position 6 is Gva, des-amino-arginine (5-guanidinovaleric acid), no acetyl; C-terminal amide; disulfide cycle) [SEQ. ID. NO. 3 (Gva^6 analog of Ac-hMCH(6-16)-NH2)]"
  unitAbbrev: "%"
  Activation %, aequorin bioluminescence: 102
- binder: "XCMLGRVYRPC (N-terminal acetyl; D-Cit (D-citrulline) at position 6; C-terminal amide; disulfide cycle) [SEQ. ID. NO. 14 (Ac-D-Cit^6 analog of Ac-hMCH(6-16)-NH2)]"
  unitAbbrev: "%"
  Activation %, aequorin bioluminescence: 68
- binder: "DFDMLRCMLGRVYRPCWQV (disulfide 7-16 (inferred)) [human MCH]"
  unitAbbrev: "%"
  Activation %, aequorin bioluminescence: 100
- binder: "XCMLGRVYRPC (N-terminal acetyl; D-Asn at position 6; C-terminal amide; disulfide cycle) [SEQ. ID. NO. 10 (Ac-D-Asn^6 analog of Ac-hMCH(6-16)-NH2)]"
  unitAbbrev: "%"
  Activation %, aequorin bioluminescence: 42
- binder: "XCMLGRVYRPC (HELM PEPTIDE1{[ac].[dK].C.M.L.G.R.V.Y.R.P.C.[am]}$PEPTIDE1,PEPTIDE1,3:R3-12:R3$$$V2.0; SMILES CSCC[C@@H]1NC(=O)[C@@H](NC(=O)[C@@H](CCCCN)NC(C)=O)CSSC[C@@H](C(N)=O)NC(=O)[C@@H]2CCCN2C(=O)[C@H](CCCNC(=N)N)NC(=O)[C@H](Cc2ccc(O)cc2)NC(=O)[C@H](C(C)C)NC(=O)[C@H](CCCNC(=N)N)NC(=O)CNC(=O)[C@H](CC(C)C)NC1=O) [SEQ. ID. NO. 13 (Ac-D-Lys^6 analog of Ac-hMCH(6-16)-NH2)]"
  unitAbbrev: "%"
  Activation %, aequorin bioluminescence: 55

[1] XCMLGRVYRPC (N-terminal acetyl; D-Ser at position 6; C-terminal amide; disulfide cycle) [SEQ. ID. NO. 11 (Ac-D-Ser^6 analog of Ac-hMCH(6-16)-NH2)]
[2] XCMLGRVYRPC (N-terminal acetyl; D-Nle (D-norleucine) at position 6; C-terminal amide; disulfide cycle) [SEQ. ID. NO. 7 (Ac-D-Nle^6 analog of Ac-hMCH(6-16)-NH2)]
# argmax over Activation %, aequorin bioluminescence for candidates 1 and 2 // caller expects the label of the chosen entry
2
(2: 69%, 1: 39%)

Just for reference, patent US20050020492A1 is where these values come from.
